Target: CDK6-CYCLIND3 (Homo sapiens, UniProt Q00534)
Construct: purchased Carna
Sequence (Q00534 whole entry): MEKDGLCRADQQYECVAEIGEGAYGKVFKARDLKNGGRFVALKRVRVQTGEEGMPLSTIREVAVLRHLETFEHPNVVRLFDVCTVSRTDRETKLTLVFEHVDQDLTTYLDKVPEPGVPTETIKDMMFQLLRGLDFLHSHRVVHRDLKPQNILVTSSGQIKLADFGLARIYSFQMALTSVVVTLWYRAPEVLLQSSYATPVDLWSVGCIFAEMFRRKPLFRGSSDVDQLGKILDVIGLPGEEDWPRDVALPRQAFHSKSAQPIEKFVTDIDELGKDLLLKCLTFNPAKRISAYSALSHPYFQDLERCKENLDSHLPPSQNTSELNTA
Sequence (P30281 whole entry partner): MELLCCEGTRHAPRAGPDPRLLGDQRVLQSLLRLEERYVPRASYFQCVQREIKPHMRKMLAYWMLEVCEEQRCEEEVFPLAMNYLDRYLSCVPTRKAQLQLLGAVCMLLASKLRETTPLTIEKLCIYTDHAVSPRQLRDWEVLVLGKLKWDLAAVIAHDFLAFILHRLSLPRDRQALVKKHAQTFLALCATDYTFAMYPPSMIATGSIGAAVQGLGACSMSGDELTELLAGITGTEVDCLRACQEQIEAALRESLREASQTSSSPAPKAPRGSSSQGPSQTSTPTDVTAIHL
Assay: Microfluidic LabChip kinase inhibition assay, CDK6-CyclinD3
Format: biochemical
Conditions: Table 3a; 300 μM ATP; read-out: CDK6 CyclinD3 IC50
For each of the molecules below, state its IC50.
Hi! Could you send only the number? It should be in nM, unit omitted.

Query: Write down measured IC50 (CDK6-CYCLIND3 (Homo sapiens, UniProt Q00534)) for this molecule. O=C1NCCC12Cc1cnc(Nc3ccc(N4CCNCC4)c(F)c3)nc1N2C1CCCC1 (single isomer, unassigned) [Compound C204]
Result: 11800

Query: Write down measured IC50 (CDK6-CYCLIND3 (Homo sapiens, UniProt Q00534)) for this molecule. O=C1NCCC12Cc1cnc(Nc3ccc(N4CCNCC4)c(F)c3)nc1N2C1CCCC1 (single isomer, unassigned) [Compound C203]
Result: 104

Query: Write down measured IC50 (CDK6-CYCLIND3 (Homo sapiens, UniProt Q00534)) for this molecule. CN1CCN(c2ccc(Nc3ncc4c(n3)N(C3CCCCC3)C3(CCNC3=O)C4)cn2)CC1 (stereo not shown) [Compound C201]
Result: 115

Query: Write down measured IC50 (CDK6-CYCLIND3 (Homo sapiens, UniProt Q00534)) for this molecule. CN1CCN(c2ccc(Nc3ncc4c(n3)N(C3CCCCC3)C3(CCNC3=O)C4)nc2)CC1 (stereo not shown) [Compound C202]
Result: 704

###

Biological target: CDK9-CYCLINT1 (Homo sapiens, UniProt P50750)
Construct: purchased Carna
Sequence (P50750 whole entry): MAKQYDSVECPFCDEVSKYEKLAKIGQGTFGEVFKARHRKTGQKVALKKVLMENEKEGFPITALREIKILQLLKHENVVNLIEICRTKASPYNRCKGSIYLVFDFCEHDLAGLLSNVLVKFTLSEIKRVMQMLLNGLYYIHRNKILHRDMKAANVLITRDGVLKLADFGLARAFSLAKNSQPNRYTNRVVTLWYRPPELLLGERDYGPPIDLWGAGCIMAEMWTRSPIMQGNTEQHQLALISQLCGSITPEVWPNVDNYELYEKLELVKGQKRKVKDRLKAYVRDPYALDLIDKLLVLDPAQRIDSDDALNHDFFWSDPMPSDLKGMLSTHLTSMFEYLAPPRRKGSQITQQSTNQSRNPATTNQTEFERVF
Sequence (O60563 whole entry partner): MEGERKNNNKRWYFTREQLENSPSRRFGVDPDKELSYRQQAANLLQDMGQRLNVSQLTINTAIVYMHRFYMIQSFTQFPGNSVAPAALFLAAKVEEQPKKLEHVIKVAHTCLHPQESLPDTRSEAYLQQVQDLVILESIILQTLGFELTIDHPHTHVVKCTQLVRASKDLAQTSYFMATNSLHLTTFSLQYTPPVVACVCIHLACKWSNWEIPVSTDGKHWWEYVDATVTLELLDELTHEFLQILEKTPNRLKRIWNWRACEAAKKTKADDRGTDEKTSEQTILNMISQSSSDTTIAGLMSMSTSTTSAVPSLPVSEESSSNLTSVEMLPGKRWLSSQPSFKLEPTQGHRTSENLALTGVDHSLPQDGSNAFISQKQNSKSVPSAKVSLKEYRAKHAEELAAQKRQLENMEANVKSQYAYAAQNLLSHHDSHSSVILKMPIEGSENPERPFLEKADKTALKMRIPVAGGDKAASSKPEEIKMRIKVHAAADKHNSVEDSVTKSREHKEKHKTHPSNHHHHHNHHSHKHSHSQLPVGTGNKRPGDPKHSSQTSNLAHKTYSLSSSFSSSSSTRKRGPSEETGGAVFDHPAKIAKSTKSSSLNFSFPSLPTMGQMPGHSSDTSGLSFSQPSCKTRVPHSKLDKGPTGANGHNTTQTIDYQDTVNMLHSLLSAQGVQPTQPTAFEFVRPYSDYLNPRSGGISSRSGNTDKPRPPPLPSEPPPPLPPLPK
Assay: Microfluidic LabChip kinase inhibition assay, CDK9-CyclinT1
Type: biochemical
Settings: Table 3a; 10 μM ATP; read-out: CDK9 CyclinT1 IC50
For each of the molecules below, state its pIC50.
Lab note — pIC50 values are minus log10 of concentrations in M.

Query: Given the molecule CN(C)[C@@H]1CCN(C(=O)c2ccc(Nc3ncc4c(n3)N(C3CCCC3)C3(CCNC3=O)C4)cc2)C1 (stereo partly shown) [Compound C181] , write its reported pIC50.
Result: 7.22

Query: Given the molecule CC1CN(c2ccc(Nc3ncc4c(n3)N(C3CCCC3)C3(CC(=O)NC3=O)C4)cc2)CC(C)N1 (stereo not shown) [Compound C208] , write its reported pIC50.
Result: 7.10

Query: Given the molecule CC1CN(c2ccc(Nc3ncc4c(n3)N(C3CCCC3)C3(CCNC3=O)C4)cc2)CC(C)N1 (stereo not shown) [Compound C207] , write its reported pIC50.
Result: 6.83

Query: Given the molecule CN(C)[C@@H]1CCN(c2ccc(Nc3ncc4c(n3)N(C3CCCC3)C3(CCNC3=O)C4)cc2F)C1 (stereo partly shown) [Compound C176] , write its reported pIC50.
Result: 7.57

Query: Given the molecule CN1CCN(c2ccc(Nc3ncc4c(n3)N(C3CCCC3)C3(CC(=O)NC3=O)C4)cc2)CC1 (single isomer, unassigned) [Compound C137] , write its reported pIC50.
Result: 6.44

Query: Given the molecule COc1cc(Nc2ncc3c(n2)N(C2CCCC2)C2(CCNC2=O)C3)ccc1N1CCN(C)CC1 (stereo not shown) [Compound C123] , write its reported pIC50.
Result: 6.53

###

For each of the molecules below, state its IC50.
Target: CDK1/B (Homo sapiens)
Sequence (P06493 whole entry): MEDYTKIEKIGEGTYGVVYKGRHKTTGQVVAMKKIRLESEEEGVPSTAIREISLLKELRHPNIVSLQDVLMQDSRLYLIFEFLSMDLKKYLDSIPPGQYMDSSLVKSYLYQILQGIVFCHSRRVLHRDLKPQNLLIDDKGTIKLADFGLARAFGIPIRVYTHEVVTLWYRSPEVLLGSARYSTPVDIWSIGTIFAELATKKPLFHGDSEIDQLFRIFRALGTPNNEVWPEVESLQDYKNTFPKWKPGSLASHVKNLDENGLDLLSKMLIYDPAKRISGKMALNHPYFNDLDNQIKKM
Sequence (P14635 whole entry partner): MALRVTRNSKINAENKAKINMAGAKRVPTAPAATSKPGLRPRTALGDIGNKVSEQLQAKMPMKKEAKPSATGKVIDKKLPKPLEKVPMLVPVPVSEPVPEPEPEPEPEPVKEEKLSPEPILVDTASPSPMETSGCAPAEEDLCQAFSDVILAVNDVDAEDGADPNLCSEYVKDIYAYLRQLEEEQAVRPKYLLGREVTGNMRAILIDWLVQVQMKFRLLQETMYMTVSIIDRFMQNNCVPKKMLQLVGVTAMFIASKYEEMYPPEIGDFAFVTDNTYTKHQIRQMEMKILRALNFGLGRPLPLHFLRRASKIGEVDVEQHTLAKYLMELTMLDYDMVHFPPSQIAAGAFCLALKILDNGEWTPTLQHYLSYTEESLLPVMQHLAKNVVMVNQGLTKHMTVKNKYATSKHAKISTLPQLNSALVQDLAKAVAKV
Assay: Additional inhibition assay, CDK1/B
Type: biochemical
Conditions: Table 3b

Query: Given the molecule CN(C)[C@@H]1CCN(C(=O)c2ccc(Nc3ncc4c(n3)N(C3CCCC3)C3(CCNC3=O)C4)cc2)C1 (stereo partly drawn) , write its reported IC50.
Result: 3.55 µM

Query: Given the molecule CC1CN(c2ccc(Nc3ncc4c(n3)N(C3CCCC3)C3(CCNC3=O)C4)cc2)CC(C)N1 (stereo not drawn) , write its reported IC50.
Result: > 10 µM

Query: Given the molecule CN1CC2(C1)CN(c1ccc(Nc3ncc4c(n3)N(C3CCCC3)C3(CC(=O)NC3=O)C4)cc1F)C2 (stereo not drawn) , write its reported IC50.
Result: > 10 µM

###

Target: CDK2-CYCLINA (Homo sapiens)
Construct: purchased Millipore
Assay: Microfluidic LabChip kinase inhibition assay, CDK2-CyclinA
Format: biochemical
Settings: Table 3a; 50 μM ATP
parameter_measured: IC50

Query: Given the compound Cn1cc(-c2ccc(Nc3ncc4c(n3)N(C3CCCC3)C3(CCNC3=O)C4)cc2)cn1 (stereo not drawn) , write its reported IC50.
Result: > 10 µM

Query: Given the compound CN1CC2(C1)CN(c1ccc(Nc3ncc4c(n3)N(C3CCCC3)C3(CC(=O)NC3=O)C4)cc1F)C2 (stereo not drawn) , write its reported IC50.
Result: > 10 µM

Query: Given the compound CN1CCN(c2ccc(Nc3ncc4c(n3)N(C3CCCC3)C3(CCNC3=O)C4)cn2)CC1 (stereo not drawn) , write its reported IC50.
Result: > 10 µM

###

Molecular target: CDK1/B (Homo sapiens)
Assay: Additional inhibition assay, CDK1/B
Type: biochemical
Conditions: Table 3b
pIC50: −log10 of the molar value.
parameter_measured: pIC50

Query: Given the compound CN1CCN(c2ccc(Nc3ncc4c(n3)N(C3CCCC3)C3(CCNC3=O)C4)cc2)CC1 (stereo not shown) [Compound C115] , write its reported pIC50.
Result: 5.04

Query: Given the compound O=C1NCCC12Cc1cnc(Nc3ccc(OCCN4CCOCC4)cc3)nc1N2C1CCCC1 (stereo not shown) [Compound C165] , write its reported pIC50.
Result: < 5.00

Query: Given the compound O=C1NCCC12Cc1cnc(Nc3ccc(N4CCC(N5CCOCC5)CC4)cc3)nc1N2C1CCCC1 (stereo not shown) [Compound C131] , write its reported pIC50.
Result: < 5.00

Query: Given the compound CC1CN(c2ccc(Nc3ncc4c(n3)N(C3CCCC3)C3(CC(=O)NC3=O)C4)cc2)CC(C)N1 (stereo not shown) [Compound C208] , write its reported pIC50.
Result: 5.69

Query: Given the compound CN1CCN(c2ccc(Nc3ncc4c(n3)N(C3CCCC3)C3(CCNC3=O)C4)cn2)CC1 (stereo not shown) [Compound C129] , write its reported pIC50.
Result: 5.07

Query: Given the compound Cn1cc(-c2ccc(Nc3ncc4c(n3)N(C3CCCC3)C3(CCNC3=O)C4)cc2)cn1 (stereo not shown) [Compound C168] , write its reported pIC50.
Result: < 5.00

Query: Given the compound O=C1NCCC12Cc1cnc(Nc3ccc(N4CCC(N5CCOCC5)CC4)nc3)nc1N2C1CCCC1 (stereo not shown) [Compound C133] , write its reported pIC50.
Result: < 5.00

Query: Given the compound Cc1cc(Nc2ncc3c(n2)N(C2CCCC2)C2(CCNC2=O)C3)ccc1N1CCN(C(C)C)CC1 (stereo not shown) [Compound C121] , write its reported pIC50.
Result: < 5.00

Query: Given the compound CN(C)CCOc1ccc(Nc2ncc3c(n2)N(C2CCCC2)C2(CCNC2=O)C3)nc1 (stereo not shown) [Compound C210] , write its reported pIC50.
Result: < 5.00

Query: Given the compound CN(C)[C@H]1CCN(c2ccc(Nc3ncc4c(n3)N(C3CCCC3)C3(CCNC3=O)C4)cc2F)C1 (stereo partly shown) [Compound C173] , write its reported pIC50.
Result: 5.08

Query: Given the compound CC(C)c1ccc(Nc2ncc3c(n2)N(C2CCCC2)C2(CCNC2=O)C3)cc1 (stereo not shown) [Compound C209] , write its reported pIC50.
Result: < 5.00

Query: Given the compound COc1cc(Nc2ncc3c(n2)N(C2CCCC2)C2(CCNC2=O)C3)ccc1N1CCN(C)CC1 (stereo not shown) [Compound C123] , write its reported pIC50.
Result: < 5.00

Query: Given the compound CN1CCN(c2ccc(Nc3ncc4c(n3)N(C3CCCC3)C3(CC(=O)NC3=O)C4)cc2)CC1 (single isomer, unassigned) [Compound C136] , write its reported pIC50.
Result: 5.90

###

Target: CDK4-CYCLIND1 (Homo sapiens, UniProt P11802)
Sequence (P11802 whole entry): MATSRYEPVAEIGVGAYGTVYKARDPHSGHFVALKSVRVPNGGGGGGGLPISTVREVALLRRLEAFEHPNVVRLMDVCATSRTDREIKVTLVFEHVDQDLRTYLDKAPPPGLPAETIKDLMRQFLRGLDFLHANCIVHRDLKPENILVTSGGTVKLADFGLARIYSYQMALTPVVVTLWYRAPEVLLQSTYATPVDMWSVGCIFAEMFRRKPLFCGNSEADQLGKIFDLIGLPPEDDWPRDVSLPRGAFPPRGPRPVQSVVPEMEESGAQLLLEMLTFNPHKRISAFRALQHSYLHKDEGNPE
Sequence (P24385 whole entry partner): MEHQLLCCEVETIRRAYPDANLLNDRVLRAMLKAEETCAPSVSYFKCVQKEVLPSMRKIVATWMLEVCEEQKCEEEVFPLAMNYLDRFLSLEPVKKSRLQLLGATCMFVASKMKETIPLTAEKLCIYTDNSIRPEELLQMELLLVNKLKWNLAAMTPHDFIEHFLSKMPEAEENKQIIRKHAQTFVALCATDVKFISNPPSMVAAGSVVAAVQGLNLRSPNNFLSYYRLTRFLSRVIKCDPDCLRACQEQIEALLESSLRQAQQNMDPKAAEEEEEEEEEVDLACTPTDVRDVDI
Assay: Microfluidic LabChip kinase inhibition assay, CDK4-CyclinD1
Settings: CDK4 IC50 (μM), Table 2; 200 μM ATP, 1 nM enzyme
For each of the molecules below, state its IC50.
Hi! Could you send only the number? It should be in µM, unit omitted.

Query: Given the molecule O=C1NCCC12Cc1cnc(Nc3ccc(C4=CCNCC4)cn3)nc1N2C1CCCC1 (stereo not shown) , write its reported IC50.
Result: 0.372

Query: Given the molecule CN1CCN(c2ccc(Nc3ncc4c(n3)N(C3CCCC3)C3(CC(=O)N(C)C3=O)C4)cc2F)CC1 (stereo not shown) , write its reported IC50.
Result: 2.53

Query: Given the molecule O=C1CC2(Cc3cnc(Nc4ccc(OCCN5CCCC5)nc4)nc3N2C2CCCC2)C(=O)N1 (stereo not shown) , write its reported IC50.
Result: 0.072

Query: Given the molecule O=C1NCCCC12Cc1cnc(Nc3ccc(N4CCNCC4)cn3)nc1N2C1CCCC1 (stereo not shown) , write its reported IC50.
Result: 19.6

Query: Given the molecule COc1ccc(CN2CCC3(Cc4cnc(Nc5ccc(N6CCN(C)CC6)cn5)nc4N3C3CCCC3)C2=O)cc1 (stereo not shown) , write its reported IC50.
Result: 8.21

Query: Given the molecule CN(C)CCOc1ccc(Nc2ncc3c(n2)N(C2CCCC2)C2(CC(=O)NC2=O)C3)nc1 (stereo not shown) , write its reported IC50.
Result: 0.0831

Query: Given the molecule COc1cc(Nc2ncc3c(n2)N(C2CCCC2)C2(CCNC2=O)C3)ccc1N1CCN(C(C)C)CC1 (stereo not shown) , write its reported IC50.
Result: 0.288

Query: Given the molecule CN1CCN(c2ccc(Nc3ncc4c(n3)N(C3CCCC3)C3(CC(=O)NC3=O)C4)cc2F)CC1 (stereo not shown) , write its reported IC50.
Result: 0.0162

Query: Given the molecule CN(C)CCOc1ccc(Nc2ncc3c(n2)N(C2CCCC2)C2(CC(=O)NC2=O)C3)cn1 (stereo not shown) , write its reported IC50.
Result: 0.097

Query: Given the molecule CN1CCN(c2ccc(Nc3ncc4c(n3)N(C3CCCC3)C3(CCN(Cc5ccccc5)C3=O)C4)cc2F)CC1 (stereo not shown) , write its reported IC50.
Result: 0.53

Query: Given the molecule O=C1NCCC12Cc1cnc(Nc3ccc(N4CCC(N5CCOCC5)CC4)cc3)nc1N2C1CCCC1 (stereo not shown) , write its reported IC50.
Result: 0.273

Query: Given the molecule CN1CCN(c2ccc(Nc3ncc4c(n3)N(C3CCCC3)C3(CCCN(Cc5ccccc5)C3=O)C4)c(F)c2)CC1 (stereo not shown) , write its reported IC50.
Result: 4.46

Query: Given the molecule O=C1CC2(Cc3cnc(Nc4ccc(N5CCNCC5)c(F)c4)nc3N2C2CCCC2)C(=O)N1 (stereo not shown) , write its reported IC50.
Result: 0.0134

Query: Given the molecule O=C1NCCC12C(=O)N(C1CCCC1)c1nc(Nc3ccc(N4CCNCC4)c(F)c3)ncc12 (stereo not shown) , write its reported IC50.
Result: 21.8
